Below, each of the molecules is paired with its reported melting point value.

>>> df
                              molecule  reported_metric  reported_result
0  O=C1NCCCOc2c1sc1ccc(OCc3ccccc3)cc21    melting point    195 to 200 °C
1        O=C1NCCC(=O)c2c1oc1ccc(O)cc21    melting point         > 300 °C
2          COc1ccc2sc3c(c2c1)SCCCNC3=O    melting point    185 to 188 °C

Request: Entry under review: `Oc1ccc2oc3c(c2c1)CCCN1CCN=C31` . Reported melting point?
Result: 230 to 232 °C (dec.)

Request: Entry under review: `O=C1NCCSc2c1sc1c(O)cccc21` . Reported melting point?
Result: 269 to 272 °C (dec.)

Request: Entry under review: `COC(=O)c1sc2ccc(OC)cc2c1NCCCO` . Reported melting point?
Result: 116 to 120 °C
